- subject-of-test: AP-1 complex (Fos/Jun peptide) (Homo sapiens, UniProt P01100+P05412)
- Construct: made in house; host or cells: chemical peptide synthesis (no expression host)
- Sequence (P01100 137-200 limits assumed): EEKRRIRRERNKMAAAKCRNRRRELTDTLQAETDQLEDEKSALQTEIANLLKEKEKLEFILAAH
- Sequence (P05412 252-315 limits assumed): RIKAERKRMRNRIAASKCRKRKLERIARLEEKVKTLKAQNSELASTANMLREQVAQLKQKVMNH
- test-name: Activities on AP-1 binding reaction to recognition sequence (ELISA) using Fos/Jun peptide
- condition-notes: 500 μM, read-out: Inhibition rate %
inhibition at 500 µM values by entry
Give the number; % is assumed, so skip it.

Please review the following examples before continuing.
CC(C)COc1ccc(C(=O)c2ccc(OCC(C)C)c(C(=O)NCC(=O)O)c2)c(OCC(C)C)c1; 62
CC(C)COc1ccc(Cc2ccc(OCC(C)C)c(CC(=O)O)c2)c(OCC(C)C)c1; 65
CC(C)COc1ccc(C(=O)c2ccc(OCC(C)C)c(CCC(=O)NS(C)(=O)=O)c2)c(OCC(C)C)c1; 88

Now examine the next entry.
Record summary for "CC(C)COc1ccc(C(=O)c2ccc3c(c2)cc(C(=O)O)n3CC(C)C)c(OCC(C)C)c1" : reported inhibition at 500 µM = 97

---

- subject-of-test: AP-1 complex (Fos/Jun peptide) (Homo sapiens, UniProt P01100+P05412)
- Construct: made in house; host or cells: chemical peptide synthesis (no expression host)
- test-name: Activities on AP-1 binding reaction to recognition sequence (ELISA) using Fos/Jun peptide
- condition-notes: 200 μM, read-out: Inhibition rate %
quantity-measured: inhibition at 200 µM (%)
# output: bare number, implied unit %

Use these answered entries as a reference point.
CC(C)CC=C1CCC2(CC1)SC[C@H](C(=O)O)N2C(=O)CCC(C)C (stereo partly drawn); 8
CC(C)COc1ccc(C(=O)c2ccc(OCC(C)C)c(/C=C/C(=O)O)c2)c(OCC(C)C)c1; 43
CC(C)COc1ccc(C(=O)c2ccc3c(c2)cc(C(=O)O)n3CC(C)C)c(OCC(C)C)c1; 28
CC(C)CCOc1ccc(C(=O)c2ccc3c(c2)n(CCC(C)C)c(=O)n3CCC(C)C)cc1CC(=O)O; 26
CC(C)COc1ccc(C(O)c2ccc(OCC(C)C)c(CCC(=O)O)c2)c(OCC(C)C)c1 (stereo not drawn); 19

Reported inhibition at 200 µM for "CC(C)COc1ccc(C(=O)c2ccc(OCC(C)C)c(C(=O)O)c2)c(OCC(C)C)c1" was 9

Recorded inhibition at 200 µM (compound "CC(C)COc1ccc(C(=O)c2ccc(OCC(C)C)c(OCC(=O)O)c2)c(OCC(C)C)c1" ): 30

GET /value?item= "CC(C)COc1ccc(C(=O)c2ccc(OCC(C)C)c(OCC(C)C)c2)cc1CCC(=O)O" &field=inhibition at 200 µM returns 35

GET /value?item= "CC(C)COc1ccc(OCC(C)C)c(C(=O)c2ccc(OCC(C)C)c(CCC(=O)O)c2)c1" &field=inhibition at 200 µM returns 28

Please fill in: inhibition at 200 µM reported for CC(C)COc1ccc(C(O)c2ccc(OCC(C)C)c(CC(=O)O)c2)c(OCC(C)C)c1 (stereo not drawn) = 23

get_value(item= "CC(C)COc1ccc(C(=O)c2ccc(OCC(C)C)c(CCC(=O)NS(C)(=O)=O)c2)c(OCC(C)C)c1" , readout=inhibition at 200 µM) returns 22

Form field inhibition at 200 µM, entry "CC(C)COc1ccc(C(=O)c2ccc(OCC(C)C)c(CCC(=O)O)c2)c(OCC(C)C)c1" : 24

---

- subject-of-test: AP-1 complex (Fos/Jun peptide) (Homo sapiens, UniProt P01100+P05412)
- Construct: made in house; host or cells: chemical peptide synthesis (no expression host)
- test-name: Activities on AP-1 binding reaction to recognition sequence (ELISA) using Fos/Jun peptide
- condition-notes: 500 μM, read-out: Inhibition rate %
- Protocol: Activities on AP-1 Binding Reaction to Recognition Sequence (ELISA) On the other hand, Jun peptide and N-terminal biotinylated tetraglycine Fos peptide containing a DNA-binding site [Nature, Vol. 373, Pages 257-261, 1995] were synthesized and separately dissolved in tris buffer (20 mM tris-hydrochloride (pH 7.5), 50 mM potassium chloride, 1 mM ethylenediaminetetraacetic acid, 10 mM magnesium chloride, 1 mM dithiothreitol, 0.5M guanidine hydrochloride, 30% glycerol). […]
quantity-measured: inhibition at 500 µM
Reply with the number and its unit after it.

CC(C)COc1cc(OCC(C)C)cc(C(=O)c2ccc(OCC(C)C)c(CCC(=O)O)c2)c1; 78%
CC(C)COc1ccc(C(=O)c2ccc(OCC(C)C)c(/C=C/C(=O)O)c2)c(OCC(C)C)c1; 96%
CC(C)CC=C1CCC2(CC1)SC[C@H](C(=O)O)N2C(=O)CCC(C)C (stereo partly shown); 15%
CC(C)COc1ccc(C(=O)c2ccc(OCC(C)C)c(CCC(=O)O)c2)c(O)c1; 91%
CC(C)CCOc1ccc(C(=O)c2ccc3c(c2)n(CCC(C)C)c(=O)n3CCC(C)C)cc1CC(=O)O; 96%
CC(C)COc1ccc(C(NS(C)(=O)=O)c2ccc(OCC(C)C)c(CCC(=O)O)c2)c(OCC(C)C)c1 (stereo not shown); 74%

The molecule CC(C)COc1ccc(C(O)c2ccc(OCC(C)C)c(CCC(=O)O)c2)c(OCC(C)C)c1 (stereo not shown) , when measured on AP-1 complex (Fos/Jun peptide) (Homo sapiens, UniProt P01100+P05412), yielded inhibition at 500 µM of 64%

inhibition at 500 µM on AP-1 complex (Fos/Jun peptide) (Homo sapiens, UniProt P01100+P05412) for "CC(C)COc1ccc(OCC(C)C)c(C(=O)c2ccc(OCC(C)C)c(CCC(=O)O)c2)c1" is 72%

Bench note, AP-1 complex (Fos/Jun peptide) (Homo sapiens, UniProt P01100+P05412): entry "CC(C)COc1ccc(C(=O)c2ccc(OCC(C)C)c(CC(=O)O)c2)c(OCC(C)C)c1" , its inhibition at 500 µM = 46%

So the reported inhibition at 500 µM for "CC(C)COc1ccc(C(=O)c2ccc(OCC(C)C)c(OCC(C)C)c2)cc1CCC(=O)O" , on AP-1 complex (Fos/Jun peptide) (Homo sapiens, UniProt P01100+P05412), turned out to be 92%

Sample "CC(C)COc1ccc(C(=O)c2ccc(OCC(C)C)c(C(=O)O)c2)c(OCC(C)C)c1" , system: AP-1 complex (Fos/Jun peptide) (Homo sapiens, UniProt P01100+P05412). Its inhibition at 500 µM is 20%

Measured inhibition at 500 µM for this entry "CC(C)COc1ccc(C(=O)c2ccc(OCC(C)C)c(OCC(=O)O)c2)c(OCC(C)C)c1" on AP-1 complex (Fos/Jun peptide) (Homo sapiens, UniProt P01100+P05412): 79%

For "CC(C)COc1ccc(C(=O)c2ccc(OCC(C)C)c(CCC(=O)O)c2)c(OCC(C)C)c1" on AP-1 complex (Fos/Jun peptide) (Homo sapiens, UniProt P01100+P05412), measured inhibition at 500 µM was 90%

Case CC(C)COc1ccc(C(O)c2ccc(OCC(C)C)c(C=CC(=O)O)c2)c(OCC(C)C)c1 (stereo not shown) , AP-1 complex (Fos/Jun peptide) (Homo sapiens, UniProt P01100+P05412), inhibition at 500 µM recorded as 90%

Given the molecule CC(C)COc1ccc(C(O)c2ccc(OCC(C)C)c(CC(=O)O)c2)c(OCC(C)C)c1 (stereo not shown) and test system AP-1 complex (Fos/Jun peptide) (Homo sapiens, UniProt P01100+P05412), the measured inhibition at 500 µM is 37%

Result for "CC(C)CCOc1ccc(C(=O)c2cc(C(=O)CC(C)C)cn2CCC(C)C)cc1CCC(=O)O" , tested on AP-1 complex (Fos/Jun peptide) (Homo sapiens, UniProt P01100+P05412), inhibition at 500 µM: 72%

---

- subject-of-test: AP-1 complex (Fos/Jun peptide) (Homo sapiens, UniProt P01100+P05412)
- Construct: made in house; host or cells: chemical peptide synthesis (no expression host)
- test-name: Activities on AP-1 binding reaction to recognition sequence (ELISA) using Fos/Jun peptide
- condition-notes: 200 μM, read-out: Inhibition rate %
quantity-measured: inhibition at 200 µM (%)
Only the number, expressed in %, is required.

CC(C)COc1cc(OCC(C)C)cc(C(=O)c2ccc(OCC(C)C)c(CCC(=O)O)c2)c1; 27
CC(C)COc1ccc(C(O)c2ccc(OCC(C)C)c(C=CC(=O)O)c2)c(OCC(C)C)c1 (centres unmarked); 21
CC(C)COc1ccc(C(NS(C)(=O)=O)c2ccc(OCC(C)C)c(CCC(=O)O)c2)c(OCC(C)C)c1 (centres unmarked); 18
CC(C)COc1ccc(C(=O)c2ccc(OCC(C)C)c(CCC(=O)O)c2)c(O)c1; 18
CC(C)COc1ccc(C(=O)c2ccc(OCC(C)C)c(CC(=O)O)c2)c(OCC(C)C)c1; 14

Noted for "CC(C)CCOc1ccc(C(=O)c2cc(C(=O)CC(C)C)cn2CCC(C)C)cc1CCC(=O)O" : its inhibition at 200 µM reads 29

inhibition at 200 µM in this record for "CC(C)COc1ccc(Cc2ccc(OCC(C)C)c(CC(=O)O)c2)c(OCC(C)C)c1" : 21

In plain terms, "CC(C)COc1ccc(C(=O)c2ccc(OCC(C)C)c(C(=O)NCC(=O)O)c2)c(OCC(C)C)c1" has a documented inhibition at 200 µM of 13
